Tgt: alpha-glucosidase Type 1 from bakers yeast (Saccharomyces cerevisiae, UniProt P53341)
Sequence (P53341 whole entry): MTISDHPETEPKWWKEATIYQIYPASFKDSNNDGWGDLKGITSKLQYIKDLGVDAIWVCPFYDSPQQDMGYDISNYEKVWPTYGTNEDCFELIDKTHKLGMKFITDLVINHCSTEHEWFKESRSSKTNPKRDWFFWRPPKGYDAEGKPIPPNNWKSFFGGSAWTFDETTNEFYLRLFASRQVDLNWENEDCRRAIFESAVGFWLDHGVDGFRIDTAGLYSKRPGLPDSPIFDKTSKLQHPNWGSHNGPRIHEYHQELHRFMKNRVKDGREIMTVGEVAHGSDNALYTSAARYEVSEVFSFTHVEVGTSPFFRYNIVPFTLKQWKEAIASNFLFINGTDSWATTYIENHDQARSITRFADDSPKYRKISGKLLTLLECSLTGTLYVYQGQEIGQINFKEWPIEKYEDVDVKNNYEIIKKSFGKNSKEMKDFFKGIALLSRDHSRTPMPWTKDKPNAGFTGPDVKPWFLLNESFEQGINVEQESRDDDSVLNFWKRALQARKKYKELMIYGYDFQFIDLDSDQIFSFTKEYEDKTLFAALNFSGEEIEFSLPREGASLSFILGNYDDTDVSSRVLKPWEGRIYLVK
Readout Type: pIC50
pIC50 here is simply -log10 of the concentration when that concentration is written in mol/L.

Ask: // lookup pIC50 | system=alpha-glucosidase Type 1 from bakers yeast (Saccharomyces cerevisiae, UniProt P53341) | key= "COc1ccc(-c2oc3c(OC)c(OC)c(OC)c(OC)c3c(=O)c2OC)cc1OC"
Result: 3.30
